ASSAYED_TARGET: recombinant PRL-1 (Homo sapiens, UniProt Q93096)
Construct: 6xHis (N, cleaved yes); made in house; host or cells: E. coli One Shot BL21 Star
Sequence (Q93096 1-173): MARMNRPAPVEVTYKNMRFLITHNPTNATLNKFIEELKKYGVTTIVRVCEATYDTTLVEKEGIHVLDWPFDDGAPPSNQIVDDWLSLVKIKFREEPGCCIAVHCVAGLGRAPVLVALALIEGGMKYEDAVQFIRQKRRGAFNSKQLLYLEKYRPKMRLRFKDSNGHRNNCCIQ
METHOD_SUMMARY: In vitro phosphatase assay (DiFMUP hydrolysis), PRL-1; further: test concentration or dose not given here
Format: biochemical
CONDITION_DETAILS: FDA-approved drug screen; compared to DMSO
Where a name gives a salt, the structure may show the parent alone.
// % Phosphatase Activity (compared to DMSO) PRL-1 lookup, one value per entry

Example results:
MOLECULE	OBSERVED_RESULT
O=C1C(O)=C([C@H]2CC[C@H](c3ccc(Cl)cc3)CC2)C(=O)c2ccccc21	96%
O=c1c(-n2ccnn2)c[nH]n1-c1cc(N2CCOCC2)ncn1	90%

Indicate the recorded % Phosphatase Activity (compared to DMSO) PRL-1 value for this molecule: CN(C)CC(c1ccc(O)cc1)C1(O)CCCCC1 (stereo not drawn) [Desvenlafaxine Succinate]
106%

Indicate the recorded % Phosphatase Activity (compared to DMSO) PRL-1 value for this molecule: CC[C@H](C)C(=O)O[C@H]1CCC=C2C=C[C@H](C)[C@H](CC[C@@H]3C[C@@H](O)CC(=O)O3)[C@H]21
88%

Indicate the recorded % Phosphatase Activity (compared to DMSO) PRL-1 value for this molecule: NC(=O)C1CCCc2c1[nH]c1ccc(Cl)cc21 (stereo not drawn) [EX 527 (Selisistat)]
99%

Indicate the recorded % Phosphatase Activity (compared to DMSO) PRL-1 value for this molecule: CN(C)[C@@H]1C(O)=C(C(N)=O)C(=O)[C@@]2(O)C(O)=C3C(=O)c4c(O)ccc(Cl)c4[C@@](C)(O)[C@H]3C[C@@H]12 [Chlortetracycline HCl]
106%

Indicate the recorded % Phosphatase Activity (compared to DMSO) PRL-1 value for this molecule: CCCC(CCC)C(=O)O[C@H]1C[C@H]2CC[C@@H](C1)[N+]2(C)C [Anisotropine Methylbromide]
111%

Indicate the recorded % Phosphatase Activity (compared to DMSO) PRL-1 value for this molecule: Nc1nnc(-c2cccc(Cl)c2Cl)c(N)n1
121%

###

ASSAYED_TARGET: recombinant PRL-3 (Homo sapiens, UniProt O75365)
Construct: 6xHis (N, cleaved yes); made in house; host or cells: E. coli One Shot BL21 Star
Sequence (O75365 whole entry): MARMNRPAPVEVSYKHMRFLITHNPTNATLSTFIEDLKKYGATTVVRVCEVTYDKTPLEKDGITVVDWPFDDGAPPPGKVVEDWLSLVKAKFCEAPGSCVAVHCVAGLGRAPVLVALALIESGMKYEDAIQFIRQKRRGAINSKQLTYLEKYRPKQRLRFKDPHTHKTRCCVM
METHOD_SUMMARY: In vitro phosphatase assay (DiFMUP hydrolysis), PRL-3
Format: biochemical
CONDITION_DETAILS: […] protein, DiFMUP at KM; read-out: Calculated IC50, PRL-3 phosphatase activity
// IC50 lookup, one value per entry
Report only the number, with the unit µM understood.

Example results:
COMPOUND	OBSERVED_RESULT
Cc1cc(C(C#N)c2ccc(Cl)cc2)c(Cl)cc1NC(=O)c1cc(I)cc(I)c1[O-].[Na+] (stereo not drawn) [Closantel Sodium, reference compound]	10
CC1=NN(c2ccc(C)c(C)c2)C(=O)/C1=N\Nc1cccc(-c2cccc(C(=O)O)c2)c1O [Eltromobag Olamine, reference compound]	27

// below: IC50 requested for another compound
Indicate the recorded IC50 value for this compound: CCOc1nc2cccc(C(=O)O)c2n1Cc1ccc(-c2ccccc2-c2nnn[nH]2)cc1
28
